- Tgt: T1, Peptide 4: Biotin-AGGGGSGGGGSGGGGSAAA-Tyr-acid (N-terminal biotin; C-terminal acid; no PC)
- T1 construct: control peptide without PC
- T1 peptide: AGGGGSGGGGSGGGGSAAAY
- Experiment Description: scFv ELISA
Readout Type: OD450

Binder	OD450
PcOxP_DB01_D04 (scFv, V domains shown, scFv in periplasmic extract) VH: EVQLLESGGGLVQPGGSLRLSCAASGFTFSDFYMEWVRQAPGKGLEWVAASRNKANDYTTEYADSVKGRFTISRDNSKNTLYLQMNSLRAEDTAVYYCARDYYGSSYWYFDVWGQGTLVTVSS VL: DIVMTQSPDSLAVSLGERATINCTASESLWSSKHKVHYLAWYQQKPGQPPKLLIYGASNRYIGVPDRFSGSGSGTDFTLTISSLQAEDVAVYYCAQFYSYPLTFGGGTKVEIK	0.08 OD450

Query PcOxP_DB03_G10 (scFv, V domains shown, scFv in periplasmic extract) VH: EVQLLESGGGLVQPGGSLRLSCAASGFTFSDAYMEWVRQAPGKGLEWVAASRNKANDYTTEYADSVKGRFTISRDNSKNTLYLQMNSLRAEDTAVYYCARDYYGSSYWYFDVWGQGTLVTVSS VL: DIQMTQSPSSLSASVGDRVTITCTASESLYSSKHKVHYLAWYQQKPGKAPKLLIYGASNRQIGVPSRFSGSGSGTDFTLTISSLQPEDFATYYCAQFYTYPLTFGGGTKVEIK yields OD450 of 0.05 OD450

Measured OD450, PcOxP_DB02_E08 (scFv, V domains shown, scFv in periplasmic extract) VH: EVQLLESGGGLVQPGGSLRLSCAASGFTFSDDYMEWVRQAPGKGLEWVAATRNKANDYTTEYADSVKGRFTISRDNSKNTLYLQMNSLRAEDTAVYYCARDYYGSSYWYFDSWGQGTLVTVSS VL: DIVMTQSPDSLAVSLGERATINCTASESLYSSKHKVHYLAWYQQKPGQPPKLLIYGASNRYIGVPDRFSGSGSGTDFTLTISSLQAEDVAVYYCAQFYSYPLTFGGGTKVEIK : 0.04 OD450

In plain terms, PcOxP_DB01_C10 (scFv, V domains shown, scFv in periplasmic extract) VH: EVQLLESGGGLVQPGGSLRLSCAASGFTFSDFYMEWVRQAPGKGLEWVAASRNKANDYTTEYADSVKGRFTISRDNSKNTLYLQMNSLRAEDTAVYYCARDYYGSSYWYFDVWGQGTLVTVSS VL: DIVMTQSPDSLAVSLGERATINCTSSQSLLSSSHNKNYLAWYQQKPGQPPKLLIYGASNRYIGVPDRFSGSGSGTDFTLTISSLQAEDVAVYYCAQFYSYPLTFGGGTKVEIK has a documented OD450 of 0.04 OD450

# OD450 of PcOxP_DB01_F06 (scFv, V domains shown, scFv in periplasmic extract) VH: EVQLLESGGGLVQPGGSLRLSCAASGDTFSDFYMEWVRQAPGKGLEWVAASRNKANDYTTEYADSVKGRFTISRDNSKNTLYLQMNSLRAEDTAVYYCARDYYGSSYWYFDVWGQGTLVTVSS VL: DIVMTQSPDSLAVSLGERATINCKSSQSLYYSSNKKNYLAWYQQKPGQPPKLLIYGASNRYGGVPDRFSGSGSGTDFTLTISSLQAEDVAVYYCAQFYRYPLTFGGGTKVEIK = 0.04 OD450

Given item PcOxP_DB01_B10 (scFv, V domains shown, scFv in periplasmic extract) VH: EVQLLESGGGLVQPGGSLRLSCAASGFTFSDFYMEWVRQAPGKGLEWVAASRNKANDYTTTYADSVKGRFTISRDNSKNTLYLQMNSLRAEDTAVYYCARDYYGSSHWYFDVWGQGTLVTVSS VL: DIVMTQSPDSLAVSLGERATINCTASESLYSSKGKVHYLAWYQQKPGQPPKLLIYGASNRYIGVPDRFSGSGSGTDFTLTISSLQAEDVAVYYCVQFYSYPLTFGGGTKVEIK , the value recorded as its OD450 is 0.05 OD450

Recorded OD450 (binder PcOxP_DB04_D08 (scFv, V domains shown, scFv in periplasmic extract) VH: EVQLLESGGGLVQPGGSLRLSCAASGFTFSDHYMEWVRQAPGKGLEWVAASRNKANDYTTEYADSVKGRFTISRDNSKNTLYLQMNSLRAEDTAVYYCARDYYGSSYWYFDVWGQGTLVTVSS VL: DIQMTQSPSSLSASVGDRVTITCTASESLYSSKHKVHYLAWYQQKPGKAPKLLIYGASNRAIGVPSRFSGSGSGTDFTLTISSLQPEDFATYYCAQFYTYPLTFGGGTKVEIK ): 0.07 OD450

Entry under test: PcOxP_DB02_C10 (scFv, V domains shown, scFv in periplasmic extract) VH: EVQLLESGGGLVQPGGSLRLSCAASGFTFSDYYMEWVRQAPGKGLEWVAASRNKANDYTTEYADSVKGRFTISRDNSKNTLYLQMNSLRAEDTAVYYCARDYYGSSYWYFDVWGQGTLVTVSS VL: DIVMTQSPDSLAVSLGERATINCTASESLYSSKHKVHYLAWYQQKPGQPPKLLIYGASNRYIGVPDRFSGSGSGTDFTLTISSLQAEDVAVYYCAQFYEYPLTFGGGTKVEIK . Its OD450 was 0.04 OD450

OD450 for PcOxP_DB01_D06 (scFv, V domains shown, scFv in periplasmic extract) VH: EVQLLESGGGLVQPGGSLRLSCAASGFTFSDFYMEWVRQAPGKGLEWVAASRNKANDYTTEYADSVKGRFTISRDNSKNTLYLQMNSLRAEDTAVYYCARDYYGSSYWYFDSWGQGTLVTVSS VL: DIVMTQSPDSLAVSLGERATINCTASESLYSSKHKVHYLAWYQQKPGQPPKLLIYGASNRYIGVPDRFSGSGSGTDFTLTISSLQAEDVAVYYCAQFYIYPLTFGGGTKVEIK is 0.04 OD450

Measured OD450, PcOxP_DB02_A05 (scFv, V domains shown, scFv in periplasmic extract) VH: EVQLLESGGGLVQPGGSLRLSCAASGFTGSDFYMEWVRQAPGKGLEWVAASRNKWNDYTTEYADSVKGRFTISRDNSKNTLYLQMNSLRAEDTAVYYCARDYYGSSYWYFDVWGQGTLVTVSS VL: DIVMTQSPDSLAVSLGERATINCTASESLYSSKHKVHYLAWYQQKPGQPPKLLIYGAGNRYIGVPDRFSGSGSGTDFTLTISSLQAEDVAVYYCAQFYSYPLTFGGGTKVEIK : 0.05 OD450
